For UniProtKB Q08499, measured EC50 is reported for the entries below.

# example entries with known answers
- smiles repr: "CCOc1ncc(Cn2cc(CF)nn2)cc1-c1cccc(OC(F)F)c1"
  measure name: "EC50"
  test value: "100 to 1000 nM"
- smiles repr: "Cc1nc(C)c(Cc2cnc(OC(F)F)c(-c3cccc(Cl)c3)c2)s1"
  measure name: "EC50"
  test value: "< 100 nM"
- smiles repr: "OCc1ncn(Cc2cnc(OC(F)F)c(-c3cccc(Cl)c3)c2)n1"
  measure name: "EC50"
  test value: "100 to 1000 nM"
- smiles repr: "CN(C)c1ncn(Cc2cnc(OC(F)F)c(-c3cccc(Cl)c3)c2)n1"
  measure name: "EC50"
  test value: "100 to 1000 nM"
- smiles repr: "COc1ncc(Cn2cnc(CF)n2)cc1-c1ccnc(OC(F)F)c1"
  measure name: "EC50"
  test value: "< 100 nM"
- smiles repr: "CC(C)Oc1ncc(Cc2cnc(N)nc2)cc1-c1cccc(Cl)c1"
  measure name: "EC50"
  test value: "100 to 1000 nM"
- smiles repr: "CCOc1ncc(Cn2cnc(C(F)F)n2)cc1-c1cccc(OC(F)F)c1"
  measure name: "EC50"
  test value: "< 100 nM"
- smiles repr: "CC(C)(O)c1ccc(Cc2cnc(OC(F)F)c(-c3cccc(Cl)c3)c2)cn1"
  measure name: "EC50"
  test value: "100 to 1000 nM"

Lab note: measured EC50 of CCOc1ncc(Cn2ncc(Cl)c2N)cc1-c1cccc(Cl)c1 was 1000 to 10000 nM

Just so you know, measured EC50 for COc1ncc(Cc2cnc(C(N)=O)nc2)cc1-c1cccc(Cl)c1 came out at 100 to 1000 nM

Record CCOc1ncc(Cn2cnc(CO)n2)cc1-c1ccnc(OC(F)F)c1 , field EC50: < 100 nM

Looking up Fc1cccc(-c2cc(Cn3cncn3)cnc2OC(F)F)c1 , I found its EC50 recorded as < 100 nM

Memo: COc1ncc(Cc2ccc(C(N)=O)nc2)nc1-c1cccc(Cl)c1 , reported EC50: 100 to 1000 nM

For this molecule ( CCOc1ncc(Cn2cnc(N)n2)nc1-c1cccc(OC(F)F)c1 ), measured EC50 is 1000 to 10000 nM

Lab note: N#Cc1ncn(Cc2cnc(OC(F)F)c(-c3cccc(Cl)c3)c2)n1 gave EC50 of 1000 to 10000 nM

The recorded EC50 for entry COc1ncc(Cc2cnc(C#N)nc2)cc1-c1cccc(F)c1 equals 1000 to 10000 nM

====

pEC50: −log10 of the molar value.
The following molecules each carry a recorded pEC50 for PDE4D3 (Homo sapiens).

# count of solved cases: 3
- molecule: "FC(F)Oc1ncc(Cc2cn[nH]c2)cc1-c1cccc(Cl)c1 [Example 28]"
  pEC50: "> 7.00"
- molecule: "CCOc1ncc(Cn2ncc(Cl)c2CO)cc1-c1cccc(Cl)c1 [Example 278]"
  pEC50: "6.00 to 7.00"
- molecule: "COc1ncc(Cn2cnc(CO)n2)cc1-c1cccc(OC(F)F)c1 [Example 202]"
  pEC50: "> 7.00"

Noted for COc1ncc(Cc2ccc(N(C)C)nc2)cc1-c1cccc(Cl)c1 [Example 34] : its pEC50 reads 6.00 to 7.00

The recorded pEC50 for entry COc1ncc(C(N)c2ccc(F)cc2)cc1-c1cccc(Cl)c1 (stereo not shown) [Example 18] equals 5.00 to 6.00

// field: pEC50; key: COc1ncc(Cc2cnc(OC(F)F)c(-c3cccc(Cl)c3)c2)cn1 [Example 92] ; value = > 7.00

Per the records, this molecule ( FC(F)Oc1ncc(Cn2ncnn2)cc1-c1cccc(Cl)c1 [Example 162] ) has pEC50 equal to > 7.00

pEC50 in this record for COc1ncc(Cc2c(C)noc2C)nc1-c1cccc(Cl)c1 [Example 98] : 5.00 to 6.00

The reported pEC50 of the molecule COc1ncc(Cc2cnc(C)nc2)cc1-c1cccc(Cl)c1 [Example 75] was 6.00 to 7.00

So for COc1ncc(Cn2cnc(N)n2)cc1-c1cccc(C)c1 [Example 222] , the logged pEC50 turned out to be 6.00 to 7.00
